- TARGET: HLA-A*02:01 (Homo sapiens, UniProt P04439, D140Y/D185E/D98H/E176V/E277Q/G131W/G231S/I119V/I121R/I166T/I218V/L300P/L318F/N151K/N90K/P208A/P217A/Q86G/Q94H/R138H/R169H/T345S)
- ASSAY_OVERVIEW: MHC binding assay (UV-ligand exchange, ELISA, peptide exchange yield)
- EXPERIMENTAL_CONTEXT: binding of HLA-class I restricted peptides to HLA-A*02:01
VALUE_KIND: Peptide exchange (MHC class I binding score, peptide exchange yield)

// worked examples, Peptide exchange (MHC class I binding score, peptide exchange yield) included
162 (YQQAQVPSV; listed as Homo sapiens) [compound 162] | ″+++″ (≥50% = +++)
361 (ALYELEGTTV; listed as Homo sapiens) [compound 361] | ″+++″ (≥50% = +++)
443 (GLWEIENNPTV; listed as Homo sapiens) [compound 443] | ″+++″ (≥50% = +++)
14 (AAYGGLNEKSFV; listed as Homo sapiens) [compound 14] | ″+++″ (≥50% = +++)
61 (FLQGYQLHL; listed as Homo sapiens) [compound 61] | ″++++″ (≥75% = ++++)
598 (FLFPHSVLV; listed as Homo sapiens) [compound 598] | ″+++″ (≥50% = +++)
465 (QLCDLNAEL; listed as Homo sapiens) [compound 465] | ″+++″ (≥50% = +++)
235 (YLNDLHEVLL; listed as Homo sapiens) [compound 235] | ″++++″ (≥75% = ++++)
504 (GLSDGNPSL; listed as Homo sapiens) [compound 504] | ″++″ (≥20% = ++)
185 (FLIDDKGYTL; listed as Homo sapiens) [compound 185] | ″++″ (≥20% = ++)

Exercise: Name the recorded Peptide exchange (MHC class I binding score, peptide exchange yield) of the substance listed here: 357 (SMHDLVLQV; listed as Homo sapiens) [compound 357]
Solution: ″+++″ (≥50% = +++)

Exercise: Name the recorded Peptide exchange (MHC class I binding score, peptide exchange yield) of the substance listed here: 567 (SLLPLDDIVRV; listed as Homo sapiens) [compound 567]
Solution: ″+++″ (≥50% = +++)

Exercise: Name the recorded Peptide exchange (MHC class I binding score, peptide exchange yield) of the substance listed here: 110 (FLSQVDFEL; listed as Homo sapiens) [compound 110]
Solution: ″+++″ (≥50% = +++)

---

- TARGET: HLA-A*02:01 (Homo sapiens, UniProt P04439, D140Y/D185E/D98H/E176V/E277Q/G131W/G231S/I119V/I121R/I166T/I218V/L300P/L318F/N151K/N90K/P208A/P217A/Q86G/Q94H/R138H/R169H/T345S)
- ASSAY_OVERVIEW: MHC binding assay (UV-ligand exchange, ELISA, peptide exchange yield)
- EXPERIMENTAL_CONTEXT: binding of HLA-class I restricted peptides to HLA-A*02:01
VALUE_KIND: Peptide exchange (MHC class I binding score, peptide exchange yield)

// worked examples, Peptide exchange (MHC class I binding score, peptide exchange yield) included
204 (KIAENVEEV; listed as Homo sapiens) [compound 204] | ″++″ (≥20% = ++)
353 (YLFEMDSSL; listed as Homo sapiens) [compound 353] | ″++″ (≥20% = ++)
343 (SLLEVNEESTV; listed as Homo sapiens) [compound 343] | ″+++″ (≥50% = +++)
249 (LLDGFLVNV; listed as Homo sapiens) [compound 249] | ″+++″ (≥50% = +++)
269 (RVLEVGALQAV; listed as Homo sapiens) [compound 269] | ″++″ (≥20% = ++)
461 (VMFRTPLASV; listed as Homo sapiens) [compound 461] | ″++″ (≥20% = ++)
167 (KVLEVTEEFGV; listed as Homo sapiens) [compound 167] | ″+++″ (≥50% = +++)
326 (FLPEALDFV; listed as Homo sapiens) [compound 326] | ″+++″ (≥50% = +++)
512 (SLSEIVPCL; listed as Homo sapiens) [compound 512] | ″+++″ (≥50% = +++)
405 (ALYDVFLEV; listed as Homo sapiens) [compound 405] | ″++″ (≥20% = ++)

Exercise: Name the recorded Peptide exchange (MHC class I binding score, peptide exchange yield) of the substance listed here: 555 (YVLEGLKSV; listed as Homo sapiens) [compound 555]
Solution: ″+++″ (≥50% = +++)

Exercise: Name the recorded Peptide exchange (MHC class I binding score, peptide exchange yield) of the substance listed here: 130 (FLWNGEDSALL; listed as Homo sapiens) [compound 130]
Solution: ″+++″ (≥50% = +++)

Exercise: Name the recorded Peptide exchange (MHC class I binding score, peptide exchange yield) of the substance listed here: 622 (RLLGEEVVRVLQA; listed as Homo sapiens) [compound 622]
Solution: ″+++″ (≥50% = +++)

Exercise: Name the recorded Peptide exchange (MHC class I binding score, peptide exchange yield) of the substance listed here: 330 (QLALKVEGV; listed as Homo sapiens) [compound 330]
Solution: ″+++″ (≥50% = +++)

Exercise: Name the recorded Peptide exchange (MHC class I binding score, peptide exchange yield) of the substance listed here: 599 (YLLNDASLISV; listed as Homo sapiens) [compound 599]
Solution: ″+++″ (≥50% = +++)

Exercise: Name the recorded Peptide exchange (MHC class I binding score, peptide exchange yield) of the substance listed here: 125 (VQIHQVAQV; listed as Homo sapiens) [compound 125]
Solution: ″+++″ (≥50% = +++)

Exercise: Name the recorded Peptide exchange (MHC class I binding score, peptide exchange yield) of the substance listed here: 141 (YLDFSNNRL; listed as Homo sapiens) [compound 141]
Solution: ″++″ (≥20% = ++)

Exercise: Name the recorded Peptide exchange (MHC class I binding score, peptide exchange yield) of the substance listed here: 163 (ALDEMGDLLQL; listed as Homo sapiens) [compound 163]
Solution: ″+++″ (≥50% = +++)
